# Tested on: COLO 205
# experiment-summary: NCI tumour cell line growth inhibition, 48 h
Active and inactive are the calls of the source. Rule as the data show it: active = GI50 up to about 1.1 µM and inactive = higher.
Output constraint: value belongs to T (active), F (inactive)

These solved cases illustrate the format of a correct answer.
Lab log entry: O=C(C(=O)N1CCc2ccccc21)c1c[nH]c2ccccc12 — outcome as called in the assay?
F

State the result this test recorded for COc1ccc2c(c1)[n+]([O-])c1cc(C#N)ccc1[n+]2[O-] .
T

Further cases:
What is the recorded call for this compound in the test? C=CC[C@H](C[C@H](C[C@H](C[C@H](C[C@H](C[C@H](C[C@H](C[C@H](C[C@H](C[C@H](CCCCC)OC)OC)OC)OC)OC)OC)OC)OC)OC)OC
F

Recorded test outcome, item Cc1cc(C)c2c(c1)CC1(Cc3c(C)ccc(C)c3C1=O)C2=O (stereo unspecified)
F

So what was the verdict on Nc1cccc2nsnc12 in this test?
F

Fill in: this test's call for Cc1nn(-c2ccccc2)c2c1CC(=O)Nc1ccccc1-2 is ___
T

====

# Test system: OVCAR-4
# experiment-summary: NCI tumour cell line growth inhibition, 48 h
Activity calls are given as the source filed them. Rule as the data show it: active = GI50 up to about 1.1 µM and inactive = higher. Where a SMILES comes first, the peptide text is derived from it. The star is where a group is joined. Boc = CC(C)(C)OC(=O)*; Bn = c1ccc(C*)cc1
Your reply should match one of these outcome classes. active, inactive

Solved cases below.
State the result this test recorded for Cn1c(N/N=C/c2ccc(Cl)cc2)nc(-c2ccc(Cl)cc2)c(C#N)c1=O .
inactive

Status in this test for COc1ccccc1NC(=O)C1=C(C)NC(C)=C(C(=O)Nc2ccccc2OC)C1c1ccc(C)cc1 ?
inactive

Could you please tell me the result logged for COC(=O)/C=C(/OC)[C@H](C)[C@H](/C=C/c1csc(-c2csc(C(C)C)n2)n1)OC in this assay?
active

GET /call?item= O=C(Nc1ccc2nc(O)n[n+]([O-])c2c1)C(F)(F)F returns the recorded outcome of this test.
inactive

New cases:
Look up the recorded call for CCc1cccc(C(C)C)c1NC(=O)C(=O)C(Cc1nc2ccccc2nc1O)C(=O)OC (stereo unspecified) in this test.
inactive

So what was the verdict on O=C(O)CN1CCN(CC(=O)O)CCN(CC(=O)O)CCN(CC(=O)O)CC1 in this test?
inactive

What did the test return for CCCCN(CCCC)C(=O)C(=O)C(C(=O)C(=O)OC)c1nc2ccccc2o1 (stereo unspecified) ?
inactive

Assay result, entry Cc1c(CCOC=O)c(=O)[nH]c2nncn12 — outcome?
inactive

Dear colleague, could you share the recorded outcome for CCCCCCCCCCCCCCCCP(=O)(O)OCC(N)C(=O)O (stereo unspecified) when you have a moment?
inactive

Tell me the recorded outcome of this test for COc1ccc2c(c1)CCN1CCc3ccccc3CC21 (stereo unspecified) .
inactive

State the result this test recorded for COC(=O)C(CC(C)C)NC(=O)CNC(=O)C(Cc1ccc(OCc2ccccc2)cc1)NC(=O)C(COCc1ccccc1)NC(=O)OC(C)(C)C (stereo unspecified) (Boc-S(Bn)Y(Bn)GL-OMe; configuration not given here) .
inactive

====

# Test system: HL-60
# experiment-summary: NCI tumour cell line growth inhibition, 48 h
Calls of active or inactive are those of the source. No stated cut-off is given here; in the data, active = GI50 up to about 1.1 µM and inactive = higher.
Allowed answers: class 1 = active, class 0 = inactive

Use these answered entries as a reference point.
Assay result, entry COc1ccc(N2C(=O)CC(=O)N(C(=O)CCCCCCCCC(=O)N3C(=O)CC(=O)N(c4ccc(OC)cc4)C3=S)C2=S)cc1 — outcome?
class 0

Please indicate how the test categorized CC(C)(CO)NC(=O)c1cccc(C(=O)NC(C)(C)CO)c1Br .
class 0

State the result this test recorded for CCCC(=O)Nc1cc(/C=C/C(=O)N2CC(CCl)c3c2cc([N+](=O)[O-])c2ccccc32)n(C)c1 (centres undefined) .
class 1

Query compound follows.
Check the results log: what was the call for CCOc1ccc(/C=C/c2cc(OC)c(OC)c(OC)c2)cc1 ?
class 1
